Catalogue of molecules with associated melting point

Known melting point results, listed for orientation:
1. Cc1c(Cl)c(-c2ccccc2)nn1S(=O)(=O)c1ncn(S(=O)(=O)N(C)C)n1 [8-11(a)] | 125 to 128 °C
2. CN(C)S(=O)(=O)n1cnc(C(=O)c2ccc(C(F)(F)F)cc2)n1 [11-19(a)] | 121 to 122 °C

query: Which measured melting point value corresponds to Cc1c(Cl)c2ccccc2n1S(=O)(=O)c1ncn(S(=O)(=O)N(C)C)n1 [1-33(a)] ?
result: 120 to 122 °C

query: Consider next the molecule CN(C)S(=O)(=O)n1cnc(S(=O)(=O)n2nc(Cl)c3ccccc32)n1 [7-5(a)] in the same way.
result: 164 to 165 °C
